Assignment: determine reported pIC50 for the given compounds.
# Assay System: ErbB2 WT (Homo sapiens (Human))
# Sequence (P04626 23-1255): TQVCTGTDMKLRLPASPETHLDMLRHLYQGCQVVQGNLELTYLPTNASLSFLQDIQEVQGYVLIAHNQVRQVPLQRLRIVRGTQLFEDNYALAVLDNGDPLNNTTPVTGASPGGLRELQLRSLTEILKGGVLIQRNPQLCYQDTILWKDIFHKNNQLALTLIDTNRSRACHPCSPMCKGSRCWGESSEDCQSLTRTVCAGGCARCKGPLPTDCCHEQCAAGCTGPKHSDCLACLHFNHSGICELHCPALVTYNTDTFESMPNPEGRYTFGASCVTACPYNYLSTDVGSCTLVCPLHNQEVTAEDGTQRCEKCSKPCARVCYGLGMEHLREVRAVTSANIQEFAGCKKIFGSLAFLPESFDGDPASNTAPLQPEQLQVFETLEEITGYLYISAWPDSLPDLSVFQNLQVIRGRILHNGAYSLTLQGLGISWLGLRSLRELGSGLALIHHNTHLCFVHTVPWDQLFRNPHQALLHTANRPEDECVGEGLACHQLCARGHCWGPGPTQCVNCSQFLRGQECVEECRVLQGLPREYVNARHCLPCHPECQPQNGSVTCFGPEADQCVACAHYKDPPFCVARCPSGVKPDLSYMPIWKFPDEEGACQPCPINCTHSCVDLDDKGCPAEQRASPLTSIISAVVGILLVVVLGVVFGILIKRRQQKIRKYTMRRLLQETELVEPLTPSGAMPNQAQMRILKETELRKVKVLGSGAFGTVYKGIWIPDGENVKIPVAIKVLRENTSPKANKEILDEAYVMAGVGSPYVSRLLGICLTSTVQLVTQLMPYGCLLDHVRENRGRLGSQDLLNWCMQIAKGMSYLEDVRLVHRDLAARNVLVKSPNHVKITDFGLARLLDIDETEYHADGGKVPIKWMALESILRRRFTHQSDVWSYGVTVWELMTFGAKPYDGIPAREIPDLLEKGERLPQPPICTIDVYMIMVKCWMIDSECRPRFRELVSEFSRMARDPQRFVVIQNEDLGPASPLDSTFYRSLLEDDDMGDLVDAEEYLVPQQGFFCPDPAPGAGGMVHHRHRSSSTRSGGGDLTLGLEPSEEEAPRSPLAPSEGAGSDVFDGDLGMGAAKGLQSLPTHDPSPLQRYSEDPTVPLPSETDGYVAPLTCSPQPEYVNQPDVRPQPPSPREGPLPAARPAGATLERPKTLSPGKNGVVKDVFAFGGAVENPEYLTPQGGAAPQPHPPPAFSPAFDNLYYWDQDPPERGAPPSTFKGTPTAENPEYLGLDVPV
To interpret pIC50, take it as minus log10 of a concentration measured in moles per litre.

Look up ErbB2 WT (Homo sapiens (Human)) data: pIC50 of "Cc1cc(Nc2ncnc3cnc(N(C)[C@@H]4CCCOC4)nc23)ccc1Oc1ccn2ncnc2c1" , then report it.
7.77

Look up ErbB2 WT (Homo sapiens (Human)) data: pIC50 of "Cc1cc(Nc2ncnc3cnc(NC4CC(F)(F)C4)nc23)ccc1Oc1ccc2c(c1)ncn2C" , then report it.
6.71

Look up ErbB2 WT (Homo sapiens (Human)) data: pIC50 of "Cc1cc(Nc2ncnc3cnc(O[C@H]4CN(C)C[C@H]4F)nc23)ccc1Oc1ccc2c(c1)ncn2C" , then report it.
6.93

Look up ErbB2 WT (Homo sapiens (Human)) data: pIC50 of Cc1cc(Nc2ncnc3cnc(N4CCC(C)(C#N)C4)nc23)ccc1Oc1ccc2c(c1)ncn2C (stereo not shown) , then report it.
7.05
